experiment: Plasma pharmacokinetics of PF‐04447943, phase Ib study; format: in vivo, human; details: human, plasma, oral, 5 mg
Property measured: Tmax (h)

compound_structure_string=C[C@@H]1CN(Cc2ncccn2)C[C@H]1c1nc2c(cnn2C2CCOCC2)c(=O)[nH]1 reported_result=1.9

###

assay: Plasma pharmacokinetics of PF‐04447943, phase Ib study; type: in vivo, human; conditions: human, plasma, oral, 25 mg
Property measured: Tmax

compound_structure_string=C[C@@H]1CN(Cc2ncccn2)C[C@H]1c1nc2c(cnn2C2CCOCC2)c(=O)[nH]1 property_measured=Tmax reported_result="1 h"

###

experiment: Plasma pharmacokinetics of PF‐04447943, phase Ib study; assay type: in vivo, human; settings: human, plasma, oral, 5 mg, Cmax, day 1, 5 mg, geometric mean (geometric %CV)
Property measured: Cmax (ng/mL)

compound="C[C@@H]1CN(Cc2ncccn2)C[C@H]1c1nc2c(cnn2C2CCOCC2)c(=O)[nH]1 [PF‐04447943]" property_measured=Cmax reported_result=45.8
